Target Of Assay: T1, EsCas13d, nuclease-dead (Eubacterium siraeum, UniProt B0MS50, R295A;H300A;R849A;H854A)
T1 sequence: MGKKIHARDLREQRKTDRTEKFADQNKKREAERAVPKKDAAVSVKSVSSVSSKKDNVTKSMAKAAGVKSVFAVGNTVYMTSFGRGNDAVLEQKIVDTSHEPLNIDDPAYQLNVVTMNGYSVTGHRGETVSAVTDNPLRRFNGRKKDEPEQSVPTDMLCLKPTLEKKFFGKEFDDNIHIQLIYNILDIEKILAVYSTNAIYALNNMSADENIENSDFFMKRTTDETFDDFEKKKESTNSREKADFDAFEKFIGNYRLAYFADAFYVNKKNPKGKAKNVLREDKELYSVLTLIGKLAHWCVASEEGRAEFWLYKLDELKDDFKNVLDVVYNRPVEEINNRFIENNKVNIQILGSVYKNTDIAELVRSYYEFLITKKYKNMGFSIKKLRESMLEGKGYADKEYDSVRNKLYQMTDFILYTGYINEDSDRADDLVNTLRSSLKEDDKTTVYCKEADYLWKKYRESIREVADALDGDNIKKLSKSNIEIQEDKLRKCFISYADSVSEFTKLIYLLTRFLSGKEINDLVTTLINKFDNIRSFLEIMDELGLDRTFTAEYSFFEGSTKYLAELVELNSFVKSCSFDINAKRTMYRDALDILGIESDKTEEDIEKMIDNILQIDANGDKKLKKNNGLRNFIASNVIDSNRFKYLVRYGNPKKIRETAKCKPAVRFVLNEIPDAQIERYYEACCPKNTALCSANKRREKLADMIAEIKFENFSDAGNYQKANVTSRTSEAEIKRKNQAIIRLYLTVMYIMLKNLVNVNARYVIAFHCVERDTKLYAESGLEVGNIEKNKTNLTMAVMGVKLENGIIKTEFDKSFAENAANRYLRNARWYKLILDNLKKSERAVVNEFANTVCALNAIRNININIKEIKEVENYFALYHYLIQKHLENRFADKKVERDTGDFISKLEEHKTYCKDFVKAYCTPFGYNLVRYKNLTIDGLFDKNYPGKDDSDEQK
Procedure Details: crRNA (strand 1, pre-loaded); Mg2+; 40 mM Tris-HCl pH 7.5, 150 mM NaCl, 6 mM MgCl2, 1 mM DTT, 0.1% Tween-20, 0.2 mg/ml BSA; 25 C; 10 min per concentration, then washed
Measurement Conditions: tags: His6-TwinStrep-SUMO cleaved; N-terminal SNAP kept (SNAP-Surface 488); label: 3' end held by stalled T7 RNA polymerase
Below, each entry is listed alongside its reported Kd.
Measurement Type: Kd (nM)

binder="target 1 C6A,A14U (mixed) RNA 1: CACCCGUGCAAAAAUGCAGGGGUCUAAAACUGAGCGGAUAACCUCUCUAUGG RNA 2: GGGAAUGGAUCCACAUCUACGAAUUCGUACCAUAGAGUGGUUAUCAGCUCACCGAGAUCGGAAGAGCACACGU" measurement_type=Kd assay_result=54
binder="target 1 C2U,U10C (mixed) RNA 1: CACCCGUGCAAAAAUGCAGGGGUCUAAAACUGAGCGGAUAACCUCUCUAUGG RNA 2: GGGAAUGGAUCCACAUCUACGAAUUCGUACCAUAGAGAGGUCAUCCGCUUACCGAGAUCGGAAGAGCACACGU" measurement_type=Kd assay_result=20.8
